- System: Yap1 mRNA
- assay_explanation: Antisense inhibition of human Yap1 in A-431 cells by cEt gapmers, single dose (Example 2, RTS4814)
- Assay type: cell-based
- cond: Table 33; Yap1 mRNA, percent of untreated control; 3-10-3 cEt gapmers targeting SEQ ID NO.: 1, and 2
Strand notation (5' to 3'): a small letter for the sugar, then the base; units joined by * are phosphorothioate-linked, units joined directly phosphodiester-linked; [ ] holds rarer units or linkages, { } end groups; capitals alone tell only the bases. k = constrained ethyl (cEt); [5mC] = 5-methylcytosine; d = 2'-deoxy (DNA)
YAP1 (% UTC) of 20 % UTC or higher: TRUE. Under 20 % UTC: FALSE.

See these solved cases before continuing.
1076243 (kA*kT*kA*dT*dT*d[5mC]*dG*dA*dT*dG*dT*dA*dA*k[5mC]*kT*kT; antisense) [compound 1076243] : TRUE
1075539 (k[5mC]*kT*kT*dA*dA*dG*dG*dG*dA*dT*dG*dG*dA*kA*k[5mC]*kA; antisense) [compound 1075539] : TRUE

Data request: Does the substance 1076115 (k[5mC]*kA*kT*dT*dA*dG*dT*dA*dA*dG*d[5mC]*dT*dG*kA*kG*kG; antisense) [compound 1076115] have recorded YAP1 (% UTC) that is 20 % UTC or more?
Data returned: FALSE

Data request: Does the substance 1075731 (k[5mC]*k[5mC]*k[5mC]*d[5mC]*dA*dA*dT*dA*dT*dT*dA*dT*d[5mC]*kT*kA*k[5mC]; antisense) [compound 1075731] have recorded YAP1 (% UTC) that is 20 % UTC or more?
Data returned: TRUE

Data request: Does the substance 1075155 (kT*k[5mC]*kA*dT*dT*dA*dT*dA*dA*dT*dG*dG*dG*kA*kG*kG; antisense) [compound 1075155] have recorded YAP1 (% UTC) that is 20 % UTC or more?
Data returned: FALSE

Data request: Does the substance 1074931 (antisense kG*kA*kG*dA*d[5mC]*dT*dA*dT*dA*d[5mC]*dA*dA*d[5mC]*kA*kG*kG) [compound 1074931] have recorded YAP1 (% UTC) that is 20 % UTC or more?
Data returned: TRUE

Data request: Does the substance 1075955 (kG*kA*k[5mC]*d[5mC]*dT*dA*dT*dA*dA*dT*dA*d[5mC]*dA*kG*kA*kA; antisense) [compound 1075955] have recorded YAP1 (% UTC) that is 20 % UTC or more?
Data returned: TRUE

Data request: Does the substance 1075187 (kG*k[5mC]*k[5mC]*d[5mC]*dA*dA*dG*dG*dA*dG*dG*dA*dA*kA*kT*k[5mC]; antisense) [compound 1075187] have recorded YAP1 (% UTC) that is 20 % UTC or more?
Data returned: TRUE

Data request: Does the substance 1076435 (k[5mC]*kG*kT*dA*dA*dA*d[5mC]*dA*dT*d[5mC]*dA*dT*d[5mC]*kT*k[5mC]*kT; antisense) [compound 1076435] have recorded YAP1 (% UTC) that is 20 % UTC or more?
Data returned: FALSE

Data request: Does the substance 1075987 (kG*kA*kA*dG*dA*dA*dT*dA*dT*d[5mC]*dG*dA*dA*kA*kA*kG; antisense) [compound 1075987] have recorded YAP1 (% UTC) that is 20 % UTC or more?
Data returned: FALSE

Data request: Does the substance 1074803 (kA*kG*kG*d[5mC]*dA*d[5mC]*dT*dA*d[5mC]*dA*dT*dT*dT*kA*kG*kA; antisense) [compound 1074803] have recorded YAP1 (% UTC) that is 20 % UTC or more?
Data returned: TRUE

Data request: Does the substance 1076147 (kA*kT*kT*dA*dA*d[5mC]*dT*d[5mC]*dA*d[5mC]*dG*dA*dA*kG*kA*k[5mC]; antisense) [compound 1076147] have recorded YAP1 (% UTC) that is 20 % UTC or more?
Data returned: TRUE

Data request: Does the substance 1076339 (antisense k[5mC]*kA*kG*d[5mC]*dA*dA*dT*dA*d[5mC]*dT*dG*dT*dG*kG*kG*k[5mC]) [compound 1076339] have recorded YAP1 (% UTC) that is 20 % UTC or more?
Data returned: FALSE

Data request: Does the substance 1074483 (k[5mC]*kA*k[5mC]*dT*dA*dA*dT*dA*dT*dG*dG*dT*d[5mC]*kA*kT*kT; antisense) [compound 1074483] have recorded YAP1 (% UTC) that is 20 % UTC or more?
Data returned: FALSE

Data request: Does the substance 1074995 (antisense kA*kA*kA*dA*d[5mC]*dT*dA*dA*dA*dT*dG*dG*dA*k[5mC]*k[5mC]*kG) [compound 1074995] have recorded YAP1 (% UTC) that is 20 % UTC or more?
Data returned: TRUE

Data request: Does the substance 1074227 (antisense kA*k[5mC]*kT*dG*dT*d[5mC]*dG*dA*dA*dG*dA*dT*dG*k[5mC]*kT*kG) [compound 1074227] have recorded YAP1 (% UTC) that is 20 % UTC or more?
Data returned: FALSE

Data request: Does the substance 1075219 (k[5mC]*k[5mC]*kT*dT*dA*dA*d[5mC]*dA*d[5mC]*dT*dG*dG*dT*kA*kA*kG; antisense) [compound 1075219] have recorded YAP1 (% UTC) that is 20 % UTC or more?
Data returned: TRUE
